Recorded pKd values for a group of binders are listed next.
Assay target: T1, EsCas13d, nuclease-dead (Eubacterium siraeum, UniProt B0MS50, R295A;H300A;R849A;H854A)
T1 sequence: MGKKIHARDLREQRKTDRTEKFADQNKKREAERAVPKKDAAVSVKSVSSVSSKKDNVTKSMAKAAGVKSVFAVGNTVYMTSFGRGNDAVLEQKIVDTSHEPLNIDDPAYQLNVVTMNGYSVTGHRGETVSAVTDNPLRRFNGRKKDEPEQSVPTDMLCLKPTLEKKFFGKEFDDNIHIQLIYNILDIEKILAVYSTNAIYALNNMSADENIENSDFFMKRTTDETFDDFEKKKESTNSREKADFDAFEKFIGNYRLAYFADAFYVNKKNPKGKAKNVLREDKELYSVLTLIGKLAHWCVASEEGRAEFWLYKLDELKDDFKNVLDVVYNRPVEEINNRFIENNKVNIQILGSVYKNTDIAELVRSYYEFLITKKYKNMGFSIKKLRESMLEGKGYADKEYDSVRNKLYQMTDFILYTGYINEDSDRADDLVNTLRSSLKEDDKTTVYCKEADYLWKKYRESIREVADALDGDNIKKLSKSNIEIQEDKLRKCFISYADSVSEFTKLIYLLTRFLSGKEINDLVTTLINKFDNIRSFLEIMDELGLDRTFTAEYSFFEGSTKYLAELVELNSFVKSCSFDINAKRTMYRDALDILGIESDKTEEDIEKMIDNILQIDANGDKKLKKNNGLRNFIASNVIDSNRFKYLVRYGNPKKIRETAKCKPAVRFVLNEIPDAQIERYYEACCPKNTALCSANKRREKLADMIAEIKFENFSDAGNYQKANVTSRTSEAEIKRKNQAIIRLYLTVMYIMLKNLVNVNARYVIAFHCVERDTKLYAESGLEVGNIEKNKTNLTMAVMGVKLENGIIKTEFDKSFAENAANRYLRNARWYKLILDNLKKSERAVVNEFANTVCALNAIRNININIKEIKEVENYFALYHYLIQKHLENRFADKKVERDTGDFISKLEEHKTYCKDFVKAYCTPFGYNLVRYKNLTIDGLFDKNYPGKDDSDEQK
Assay info: crRNA (strand 1, pre-loaded); Mg2+; 40 mM Tris-HCl pH 7.5, 150 mM NaCl, 6 mM MgCl2, 1 mM DTT, 0.1% Tween-20, 0.2 mg/ml BSA; 25 C; 10 min per concentration, then washed
Experimental conditions: tags: His6-TwinStrep-SUMO cleaved; N-terminal SNAP kept (SNAP-Surface 488); label: 3' end held by stalled T7 RNA polymerase
// returns pKd (minus log10 of molar concentration), number only

target 3 insA 3' of 17,insA 3' of 15 (mixed) RNA 1: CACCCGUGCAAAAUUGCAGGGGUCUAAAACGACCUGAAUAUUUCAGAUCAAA RNA 2: GGGAAUGGAUCCACAUCUACGAAUUCGUUUUUGAUACUAGAAAUAUUCAGGUCUGCAGAUCGGAAGAGCACACGU; 7.43

Alright, here's another binder for you.
## Task Fill in: pKd of target 1 insA 3' of 7,insA 3' of 7 (mixed) RNA 1: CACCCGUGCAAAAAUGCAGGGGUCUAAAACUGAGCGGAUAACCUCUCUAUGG RNA 2: GGGAAUGGAUCCACAUCUACGAAUUCGUACCAUAGAGAGGUUAUCAACGCUCACCGAGAUCGGAAGAGCACACGU is ___
## Result 8.15
